target: activated human C1 (Homo sapiens, UniProt P09871); construct: fluid-phase human C2 as substrate in presence of C4; test: Test Code 026 (C1 inhibitor); format: biochemical; details: Table I; well number in twofold serial dilution assay, higher = more active
Sequence (P09871 16-688): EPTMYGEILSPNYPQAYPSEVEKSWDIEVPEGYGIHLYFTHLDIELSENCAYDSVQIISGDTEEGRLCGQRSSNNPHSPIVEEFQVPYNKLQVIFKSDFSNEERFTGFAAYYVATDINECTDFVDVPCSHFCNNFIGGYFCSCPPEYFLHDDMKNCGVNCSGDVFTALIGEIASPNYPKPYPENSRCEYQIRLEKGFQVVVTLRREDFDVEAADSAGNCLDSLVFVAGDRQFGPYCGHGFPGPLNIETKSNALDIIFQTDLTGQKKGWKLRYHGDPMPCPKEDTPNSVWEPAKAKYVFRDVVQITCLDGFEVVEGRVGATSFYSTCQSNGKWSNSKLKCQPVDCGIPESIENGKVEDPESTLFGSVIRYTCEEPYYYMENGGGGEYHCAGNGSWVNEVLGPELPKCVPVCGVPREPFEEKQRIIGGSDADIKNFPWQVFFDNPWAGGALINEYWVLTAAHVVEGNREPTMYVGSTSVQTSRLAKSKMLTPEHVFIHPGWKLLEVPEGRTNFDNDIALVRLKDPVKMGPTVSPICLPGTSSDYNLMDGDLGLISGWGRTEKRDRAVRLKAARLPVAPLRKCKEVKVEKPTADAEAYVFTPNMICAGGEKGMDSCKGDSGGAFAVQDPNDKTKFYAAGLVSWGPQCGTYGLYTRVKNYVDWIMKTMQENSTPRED
Sequence (P00736 18-705 partner): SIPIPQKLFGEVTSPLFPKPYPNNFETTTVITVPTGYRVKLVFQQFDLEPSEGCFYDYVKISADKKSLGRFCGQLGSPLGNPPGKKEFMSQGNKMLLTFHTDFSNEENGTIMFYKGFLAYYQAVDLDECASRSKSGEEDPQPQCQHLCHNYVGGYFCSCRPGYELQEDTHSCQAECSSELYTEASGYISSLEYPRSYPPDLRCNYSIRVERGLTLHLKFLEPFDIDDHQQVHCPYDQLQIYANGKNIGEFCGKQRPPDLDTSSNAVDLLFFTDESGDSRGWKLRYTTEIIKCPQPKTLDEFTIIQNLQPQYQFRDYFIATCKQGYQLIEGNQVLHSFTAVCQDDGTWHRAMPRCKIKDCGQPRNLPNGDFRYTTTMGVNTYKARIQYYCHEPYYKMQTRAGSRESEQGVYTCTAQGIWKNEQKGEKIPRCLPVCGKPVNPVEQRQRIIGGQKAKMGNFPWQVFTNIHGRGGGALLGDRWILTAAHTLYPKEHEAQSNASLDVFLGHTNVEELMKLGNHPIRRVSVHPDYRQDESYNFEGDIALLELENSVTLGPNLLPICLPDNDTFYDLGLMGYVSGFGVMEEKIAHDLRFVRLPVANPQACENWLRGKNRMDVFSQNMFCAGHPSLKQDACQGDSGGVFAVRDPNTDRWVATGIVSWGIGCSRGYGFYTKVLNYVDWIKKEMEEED
Sequence (P02745 23-245 partner): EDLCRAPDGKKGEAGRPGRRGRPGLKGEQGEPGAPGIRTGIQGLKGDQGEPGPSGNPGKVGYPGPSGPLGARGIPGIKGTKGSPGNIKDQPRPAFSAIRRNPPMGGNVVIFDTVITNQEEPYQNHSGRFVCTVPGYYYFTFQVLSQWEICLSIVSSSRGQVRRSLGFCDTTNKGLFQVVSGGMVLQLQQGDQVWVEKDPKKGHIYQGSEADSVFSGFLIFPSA
Sequence (P02746 28-253 partner): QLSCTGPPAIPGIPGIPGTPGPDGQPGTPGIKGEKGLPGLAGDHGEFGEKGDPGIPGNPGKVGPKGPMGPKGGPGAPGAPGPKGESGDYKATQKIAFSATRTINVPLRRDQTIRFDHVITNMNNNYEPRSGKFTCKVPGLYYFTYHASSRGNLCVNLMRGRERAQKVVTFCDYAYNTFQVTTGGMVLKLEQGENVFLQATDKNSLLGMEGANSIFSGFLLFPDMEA
Sequence (P02747 29-245 partner): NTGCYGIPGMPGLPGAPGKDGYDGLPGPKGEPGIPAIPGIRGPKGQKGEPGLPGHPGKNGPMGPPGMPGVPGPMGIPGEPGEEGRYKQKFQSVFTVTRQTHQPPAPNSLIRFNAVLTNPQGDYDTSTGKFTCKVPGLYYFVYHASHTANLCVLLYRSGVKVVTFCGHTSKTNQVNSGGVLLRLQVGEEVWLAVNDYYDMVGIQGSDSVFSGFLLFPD
Value type: Cl 026 Wells

The molecule `O=C(Nc1ccc(C(=O)Nc2cc(C(=O)O)cc(C(=O)Nc3ccc(S(=O)(=O)O)c4cc(S(=O)(=O)O)cc(S(=O)(=O)O)c34)c2)c(S(=O)(=O)O)c1)Nc1ccc(C(=O)Nc2cc(C(=O)O)cc(C(=O)Nc3ccc(S(=O)(=O)O)c4cc(S(=O)(=O)O)cc(S(=O)(=O)O)c34)c2)c(S(=O)(=O)O)c1` , when measured on activated human C1 (Homo sapiens, UniProt P09871), yielded Cl 026 Wells of +6 wells

* * *

Attribute: Cl 026 Wells
target: activated human C1 (Homo sapiens, UniProt P09871); construct: fluid-phase human C2 as substrate in presence of C4; assay: Test Code 026 (C1 inhibitor); type: biochemical; conditions: Table I; well number in twofold serial dilution assay, higher = more active

The measured Cl 026 Wells associated with `O=C(Nc1ccc(C(=O)Nc2ccc(C(=O)Nc3ccc(S(=O)(=O)[O-])c4cc(S(=O)(=O)[O-])cc(S(=O)(=O)[O-])c34)c(S(=O)(=O)[O-])c2)c(S(=O)(=O)[O-])c1)Nc1ccc(C(=O)Nc2ccc(C(=O)Nc3ccc(S(=O)(=O)[O-])c4cc(S(=O)(=O)[O-])cc(S(=O)(=O)[O-])c34)c(S(=O)(=O)[O-])c2)c(S(=O)(=O)[O-])c1.[Na+].[Na+].[Na+].[Na+].[Na+].[Na+].[Na+].[Na+].[Na+].[Na+]` reads +7 wells

`O=C(Nc1ccc(C(=O)Nc2ccc(C(=O)Nc3cc(S(=O)(=O)O)cc4cc(S(=O)(=O)O)cc(S(=O)(=O)O)c34)c(S(=O)(=O)O)c2)c(S(=O)(=O)O)c1)Nc1ccc(C(=O)Nc2ccc(C(=O)Nc3cc(S(=O)(=O)O)cc4cc(S(=O)(=O)O)cc(S(=O)(=O)O)c34)c(S(=O)(=O)O)c2)c(S(=O)(=O)O)c1` has a reported Cl 026 Wells of +8 wells

The molecule listed as Cc1ccc(C(=O)Nc2ccc(S(=O)(=O)O)c3cc(S(=O)(=O)O)cc(S(=O)(=O)O)c23)cc1NC(=O)c1cccc(NC(=O)Nc2cccc(C(=O)Nc3cc(C(=O)Nc4ccc(S(=O)(=O)O)c5cc(S(=O)(=O)O)cc(S(=O)(=O)O)c45)ccc3C)c2)c1 [Suramin, reference compound] has a reported Cl 026 Wells of +4 wells
